- run_description: S. cerevisiae growth modulation with rapamycin, primary screen, strain BY4716, OD600, 96 h (AID 1091); also: test concentration not given here
- assay_setup: higher = more signal, called active from +8 up or from −8 down
readout_name: z-score
Please reply with the number alone, leaving off any unit.

Record excerpt, results attached:
# structure_smiles_string, readout_name, reported_value
data = [
    ("COc1ccc([C@H]2C[C@H]3C(Br)=C[C@@H]2C(=O)[C@]32CO2)cc1", "z-score", -0.417),
    ("CC(C)(C)OC(=O)CC[C@@]12N=C(c3ccc(OCCCO)cc3)O[C@@H]1c1ccccc1N(CCS(=O)(=O)c1ccccc1)C2=O", "z-score", 0.0825),
    ("COC(=O)[C@@]1(Cc2ccccc2)[C@H]2c3cc(C(=O)N(C)C)n(CCSCCO)c3C[C@H]2CN1C(=O)c1ccccc1", "z-score", -0.694),
]

Now consider the entry below.
[in] Given the entry COC(=O)[C@@]1(Cc2ccc(F)cc2)[C@H]2c3cc(C(=O)N4CCCC4)n(Cc4ccc(C)o4)c3C[C@H]2CN1C(=O)c1ccccc1 , report its measured z-score.
[out] 0.0836

---

Recorded composite z-score for the following molecules
- target_under_test: Alpha-bungarotoxin (Bungarus multicinctus)
- run_description: alpha-bungarotoxin binders on microarray, profiling panel, artefact control for SMM control protein annotation, biochemical, small-molecule microarray, Alexa647 label, 635/667 nm fluorescence (AID 1117)
- assay_setup: alpha-BTX-A647 binding fluorescence, higher = more signal
Please reply with the number alone, leaving off any unit.

Record excerpt, results attached:
# molecule, composite z-score
rows = [
    ("C=C/C=C/[C@H]1C(=C)CN([C@@H](Cc2ccccc2)C(=O)OC)[C@@H]1[C@H](O)Cc1ccccc1", -0.217),
    ("CCN(CC)c1ccc(N2CC=CC34O[C@@H]5/C=C\\CCC(C)OC(=O)C5[C@H]3C(=O)N(C(CO)C(C)C)[C@@H]4C2=O)cc1 (stereo partly drawn)", 0.174),
    ("CCOC(=O)C[C@H]1[C@H](OC(=O)c2cc3ccccc3oc2=O)[C@@H](NC(=O)C2CCCCC2)c2cc(OCCCO)ccc2N1C(=O)c1ccccc1", -0.0403),
    ("CC(C)OC(=O)C=C1C[C@@H](c2ccccc2C(F)(F)F)O[C@@H](c2ccccc2C(F)(F)F)O1", 0.497),
    ("C=CC[C@]1(C(=O)N2CCCCC2)N=C(c2ccc(OCCCO)cc2)O[C@H]1c1ccccc1", 0.741),
    ("CC(C)C[C@@H]1NC(=O)[C@@H]2C[C@H](C(=O)NCCCCCN)[C@H](c3cccc(OCCO)c3)N2C1=O", 0.417),
    ("C=CCNC(=O)[C@H]1[C@@H]2C(=O)O[C@@H](c3ccccc3)[C@@H](c3ccccc3)N2[C@@H](c2ccc(O)cc2)[C@]12C(=O)N(C(=O)OCCOC)c1ccc(C#CCNC(N)=O)cc12", 1.07),
    ("C=CCNC(=O)[C@H]1[C@@H]2C(=O)O[C@@H](c3ccccc3)[C@@H](c3ccccc3)N2[C@@H](c2ccc(OCCO)cc2)[C@]12C(=O)Nc1ccc(C#CC3=CCCCC3)cc12", 1.11),
]

[in] Given the entry C=CC[C@]1(C(=O)NCCCOC)N=C(c2ccc(OCCCO)cc2)O[C@H]1c1ccccc1N=[N+]=[N-] , report its measured composite z-score.
[out] 0.928

[in] Given the entry COC(=O)[C@@]1(Cc2ccccc2)[C@H]2c3cc(C(=O)N4CCCC4)n(Cc4cccc5ccccc45)c3C[C@H]2CN1C(=O)c1ccccc1 , report its measured composite z-score.
[out] 0.645

[in] Given the entry CN1C2C=C(CCCO)C(C3C(=O)N(C(N)=O)C(=O)C32)C1c1ccc(CN2CCCC2)cc1 (stereo not drawn) , report its measured composite z-score.
[out] 0.236

[in] Given the entry COCCOC(=O)N1C(=O)[C@@]2(c3cc(C#CCCO)ccc31)[C@H](C(=O)N1CCN(c3ncccn3)CC1)[C@H]1C(=O)O[C@H](c3ccccc3)[C@H](c3ccccc3)N1[C@@H]2c1ccccc1OCCO , report its measured composite z-score.
[out] 0.64

[in] Given the entry COCCOC(=O)N1C(=O)[C@@]2(c3cc(C#Cc4ccc(OC)cc4)ccc31)[C@H](c1ccc(O)cc1)N1[C@H](c3ccccc3)[C@H](c3ccccc3)OC(=O)[C@H]1[C@@H]2C(=O)NC[C@H](O)c1ccccc1 , report its measured composite z-score.
[out] 1.54
